meta.source: patent US12011444B2

measurementTarget: UniProtKB P43116
measurementNotes: hEP2 b-arrestin assay (PathHunter HEK 293 PTGER2 b-arrestin cells)
Format: cell-based
details: antagonistic activity on hEP2; mean where measured multiple times
measureName: log10 of IC50 (log10 of the value in nM)

COc1cccc2c1cc(C)n2CCNc1cc(-c2ccc(CN)c(F)c2)ncn1; 1.97
CCOc1cc(-c2cc(NCCn3c(C)cc4c(F)c(F)cc(Cl)c43)ncn2)ccc1C(=O)O; 0.78
COc1cc(F)cc2c1cc(C)n2CCNc1cc(-c2ccc(-c3ncno3)cc2)ncn1; 1.18
COc1cccc2c1cc(C)n2CCNc1cc(-c2ccc(S(N)(=O)=O)c(C(F)(F)F)c2)ncn1; 1.76
Cc1ccc(F)c2c1cc(C)n2CCNc1cc(-c2ccc(C(=O)NCCO)cc2)ncn1; 2.16
Cc1ccc(Cl)c2c1cc(C)n2CCNc1cc(-c2ccc(C(=O)O)c(SCC(C)C)c2)ncn1; 1.80
CCc1cc(-c2cc(NCCn3c(C)cc4ccccc43)ncn2)sc1C(=O)O; 0.48
COc1cccc2c1cc(C)n2CCNc1cc(-c2ccc3[nH]cnc3c2)ncn1; 0.95
Cc1cc(-c2cc(NCCn3c(C)cc4c(C)ccc(F)c43)ncn2)ccc1C(=O)O; 1.38
CNS(=O)(=O)c1ccc(-c2cc(NCCn3c(C)cc4c(OC)ccc(F)c43)ncn2)cc1C; 1.88
COc1ccc(F)c2c1cc(C)n2CCNc1cc(-c2ccc(-c3nnc[nH]3)cc2)ncn1; 1.04
COc1cc(-c2cc(NCCn3c(C)cc4c(OC)cccc43)ncn2)cc(C)c1C(=O)O; 1.81
CCOc1cc(-c2cc(NCCn3c(C)cc4c(Cl)ccc(F)c43)ncn2)ccc1C(=O)O; 1.43
COc1cccc2c1cc(C)n2CCNc1cc(-c2ccc(CO)c(F)c2)ncn1; 1.08
CCOc1cc(-c2cc(NCCn3c(C)cc4c(OC)c(F)cc(F)c43)ncn2)ccc1C(=O)O; 1.92
Cc1cc(F)cc2c1cc(C)n2CCNc1cc(-c2ccc3cc[nH]c3c2)ncn1; 1.84
COc1cc(-c2cc(NCCn3c(C)cc4c(OC)ccc(F)c43)ncn2)ccc1CO; 0.60
CCOc1cc(-c2cc(NCCn3c(C)cc4c(Cl)cc(F)cc43)ncn2)ccc1C(=O)O; 1.20
CCNc1cc(-c2cc(NCCn3c(C)cc4cccc(OC)c43)ncn2)ccc1C(=O)O; 1.51
Cc1cccc2c1cc(C)n2CCNc1cc(-c2ccc(C(=O)O)c(CCC(C)C)c2)ncn1; 1.43
Cc1ccc(F)c2c1cc(C)n2CCNc1cc(-c2ccc(N3CCCS3(=O)=O)cc2)ncn1; 2.39
CCOc1cc(-c2cc(NCCn3c(C)cc4c(OC)cccc43)ncn2)ccc1CO; 0.60
Cc1cc(F)cc2c1cc(C)n2CCNc1cc(-c2ccc3cn[nH]c3c2)ncn1; 1.99
CCOc1cc(-c2cc(NCCn3c(C)cc4c(C)c(F)cc(F)c43)ncn2)sc1C(=O)O; 0.48
COc1ccc(F)c2c1cc(C)n2CCNc1cc(-c2ccc3c(c2)C(C)NC3=O)ncn1 (racemic); 1.15
CCOc1cc(-c2cc(NCCn3c(C#N)cc4c(C)cc(F)cc43)ncn2)sc1C(=O)O; 0.48
CCOc1cc(-c2cc(NCCn3c(C)cc4ccc(OC)cc43)ncn2)ccc1C(=O)O; 1.08
CCNC(=O)Nc1ccc(-c2cc(NCCn3c(C)cc4c(C)ccc(F)c43)ncn2)cc1OC; 1.72
CNc1nnc(-c2ccc(-c3cc(NCCn4c(C)cc5c(C)ccc(F)c54)ncn3)cc2)s1; 0.60
COc1cccc2c1cc(C)n2CCNc1cc(-c2ccc(S(N)(=O)=O)c(C)c2)ncn1; 1.45
Cc1cc2ccccc2n1CCNc1cc(-c2ccc(C(=O)O)c(CC(C)C)c2)ncn1; 1.26
COc1cc(F)cc2c1cc(C)n2CCNc1cc(-c2ccc(-c3c[nH]cn3)cc2)ncn1; 1.23

====

Known pIC50 of a selection of molecules
measurementTarget: PTRGER4 (EP4) (Homo sapiens (Human))
Sequence (P35408 whole entry, looked up): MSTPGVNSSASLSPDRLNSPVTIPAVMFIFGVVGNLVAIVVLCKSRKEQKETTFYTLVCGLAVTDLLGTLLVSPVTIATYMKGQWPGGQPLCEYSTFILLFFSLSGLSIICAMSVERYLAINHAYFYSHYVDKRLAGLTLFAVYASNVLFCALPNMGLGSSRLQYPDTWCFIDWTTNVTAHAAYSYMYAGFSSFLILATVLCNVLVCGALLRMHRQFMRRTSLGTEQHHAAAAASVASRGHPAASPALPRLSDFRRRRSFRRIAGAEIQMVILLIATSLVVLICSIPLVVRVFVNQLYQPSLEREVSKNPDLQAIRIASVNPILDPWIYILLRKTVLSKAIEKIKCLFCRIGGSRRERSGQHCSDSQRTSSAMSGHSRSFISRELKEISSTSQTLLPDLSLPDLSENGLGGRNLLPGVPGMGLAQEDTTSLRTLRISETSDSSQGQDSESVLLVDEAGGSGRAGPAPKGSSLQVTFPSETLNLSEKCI
measurementNotes: hEP4 b-arrestin assay (PathHunter HEK 293 PTGER4 b-arrestin cells)
Format: cell-based
details: antagonistic activity on hEP4; mean where measured multiple times
pIC50: −log10 of the molar value.
measureName: pIC50

Cc1cc(F)cc2c1cc(C)n2CCNc1cc(-c2cc(Cl)c(C(=O)O)s2)ncn1; 7.00
CCCC1NC(=O)c2ccc(-c3cc(NCCn4c(C)cc5c(C)ccc(F)c54)ncn3)cc21 (racemic); 6.53
COc1ccc(Cl)c2c1cc(C)n2CCNc1cc(-c2cc(C)c(C(=O)O)c(C)c2)ncn1; 6.02
COc1ccc(F)c2c1cc(C)n2CCNc1cc(-c2ccc3c(c2)CCO3)ncn1; 6.01
COc1ccc(F)c2c1cc(C)n2CCNc1cc(-c2ccc(C(=O)O)c(C3CC3)c2)ncn1; 6.59
CCCc1cc(-c2cc(NCCn3c(C)cc4cc(OC)cc(F)c43)ncn2)cc(Cl)c1C(=O)O; 6.42
Cc1cc2cc(F)cc(F)c2n1CCNc1cc(-c2ccc(C(=O)O)c(CC(C)C)c2)ncn1; 6.32
Cc1cc2ccccc2n1CCNc1cc(-c2ccc3ccncc3c2)ncn1; 6.00
Cc1cccc2c1cc(C)n2CCNc1cc(-c2ccc(C(=O)O)c(CCC(C)C)c2)ncn1; 6.19
Cc1ccc(F)c2c1cc(C)n2CCNc1cc(-c2ccc(-c3nnc[nH]3)cc2)ncn1; 6.91
COc1ccc(F)c2c1cc(C)n2CCNc1cc(-c2ccc3c(c2)CN(C)C3=O)ncn1; 6.74
CCOc1cc(-c2cc(NCCn3c(C)cc4c(OC)ccc(F)c43)ncn2)ccc1S(N)(=O)=O; 6.16
CCOc1cc(-c2cc(NCCn3c(C)cc4c(Cl)cc(Cl)cc43)ncn2)ccc1C(=O)O; 6.50
CCCc1cc(-c2cc(NCCn3c(C)cc4cc(C)cc(Cl)c43)ncn2)ccc1C(=O)O; 6.02
COc1ccc(Cl)c2c1cc(C)n2CCNc1cc(-c2cc(C)c(C(=O)O)c(F)c2)ncn1; 6.05
Cc1cc2c(Cl)ccc(Cl)c2n1CCNc1cc(-c2ccc3[nH]c(C(=O)O)cc3c2)ncn1; 6.52
Cc1ccc(F)c2c1cc(C)n2CCNc1cc(-c2ccc3c(c2)CCN3)ncn1; 6.91
CCOc1cc(-c2cc(NCCn3c(C)cc4c(OC)c(F)cc(F)c43)ncn2)ccc1C(=O)O; 6.27
Cc1cc(F)cc2c1cc(C)n2CCNc1cc(-c2ccc(-c3cc(O)no3)cc2)ncn1; 6.95
Cc1ccc(F)c2c1cc(C)n2CCNc1cc(-c2ccc(C3(C(=O)O)CC3)c(F)c2)ncn1; 6.35
CCOc1cc(-c2cc(NCCn3c(C)cc4c(OC)cc(F)cc43)ncn2)sc1C(=O)O; 8.22
CCOc1cc(-c2cc(NCCn3c(C)cc4c(F)cc(F)c(F)c43)ncn2)sc1C(=O)O; 7.37
CCc1cc(-c2cc(NCCn3c(C)cc4c(C)cc(F)cc43)ncn2)cc(Cl)c1C(=O)O; 6.54
Cc1ccc(Cl)c2c1cc(C)n2CCNc1cc(-c2ccc(C(=O)O)c(SCC(C)C)c2)ncn1; 6.44
COc1cccc2c1cc(C)n2CCNc1cc(-c2ccc3[nH]cnc3c2)ncn1; 6.48
CCc1cccc2c1cc(C)n2CCNc1cc(-c2ccc(C(=O)O)c(CC(C)C)c2)ncn1; 6.20
Cc1ccc(F)c2c1cc(C)n2CCNc1cc(-c2ccc(-c3ccn[nH]3)cc2)ncn1; 6.84
CCc1cc(-c2cc(NCCn3c(C)cc4c(OC)ccc(Cl)c43)ncn2)ccc1C(=O)O; 6.15
CCOc1cc(-c2cc(NCCn3c(C)cc4c(F)ccc(F)c43)ncn2)ccc1C(=O)O; 6.20
CCc1cc(-c2cc(NCCn3c(C)cc4c(OC)ccc(Cl)c43)ncn2)sc1C(=O)O; 6.91
CSc1cc(-c2cc(NCCn3c(C)cc4c(Cl)ccc(Cl)c43)ncn2)cc(F)c1C(=O)O; 6.00
COc1ccc(F)c2c1cc(C)n2CCNc1cc(-c2ccc(N3CCCC3=O)cc2)ncn1; 6.05

====

measurementTarget: PTGER2 (EP2) (Homo sapiens (Human), UniProt P43116)
Sequence (P43116 whole entry): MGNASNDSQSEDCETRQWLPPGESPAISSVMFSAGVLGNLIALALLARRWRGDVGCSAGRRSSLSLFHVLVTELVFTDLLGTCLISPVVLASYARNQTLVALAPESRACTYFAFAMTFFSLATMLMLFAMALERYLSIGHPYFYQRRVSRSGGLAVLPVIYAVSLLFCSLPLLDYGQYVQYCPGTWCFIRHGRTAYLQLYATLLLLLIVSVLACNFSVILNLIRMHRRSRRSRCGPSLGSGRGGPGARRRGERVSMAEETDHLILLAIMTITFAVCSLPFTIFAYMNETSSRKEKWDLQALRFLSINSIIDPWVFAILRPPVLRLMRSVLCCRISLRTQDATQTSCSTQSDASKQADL
measurementNotes: hEP2 b-arrestin assay (PathHunter HEK 293 PTGER2 b-arrestin cells)
Type: cell-based
details: antagonistic activity on hEP2; mean where measured multiple times
pIC50: −log10 of the molar value.
Known pIC50 of a selection of compounds
measureName: pIC50

CCc1cc(-c2cc(NCCn3c(C)cc4c(OC)ccc(F)c43)ncn2)sc1C(=O)O [compound 230]; 8.30
COc1ccc(F)c2c1cc(C)n2CCNc1cc(-c2cc(C)c(C(=O)O)c(F)c2)ncn1 [compound 277]; 7.77
COc1ccc(F)c2c1cc(C)n2CCNc1cc(-c2ccc3c(c2)CN(C)C3=O)ncn1 [compound 204]; 7.51
CCc1cc(-c2cc(NCCn3c(C)cc4c(CC)cccc43)ncn2)ccc1C(=O)O [compound 118]; 6.21
CCc1cc(-c2cc(NCCn3c(C)cc4c(C)ccc(F)c43)ncn2)sc1C(=O)O [compound 103]; 7.89
COc1ccc(F)c2c1cc(C)n2CCNc1cc(-c2ccc(-c3ncno3)cc2)ncn1 [compound 186]; 8.15
CCOc1cc(-c2cc(NCCn3c(C)cc4c(OC)cc(F)cc43)ncn2)sc1C(=O)O [compound 257]; 8.70
Cc1cc(F)cc2c1cc(C)n2CCNc1cc(-c2ccc3[nH]c(C(F)(F)F)nc3c2)ncn1 [compound 297]; 6.27
CCOc1cc(-c2cc(NCCn3c(C)cc4c(C)cc(F)cc43)ncn2)ccc1C(=O)O [compound 282]; 7.96
CCOc1cc(-c2cc(NCCn3c(C#N)cc4c(OC)cc(F)cc43)ncn2)sc1C(=O)O [compound 391]; 8.70
COc1ccc(F)c2c1cc(C)n2CCNc1cc(-c2ccc(-c3cnco3)cc2)ncn1 [compound 202]; 7.80
CCOc1cc(-c2cc(NCCn3c(C)cc4c(OC)ccc(Cl)c43)ncn2)sc1C(=O)O [compound 256]; 8.52
COc1ccc(Cl)c2c1cc(C)n2CCNc1cc(-c2cc(C)c(C(=O)O)c(Cl)c2)ncn1 [compound 155]; 7.26
CNc1cc(-c2cc(NCCn3c(C)cc4c(F)ccc(F)c43)ncn2)ccc1C(=O)O [compound 134]; 9.00
COc1ccc(F)c2c1cc(C)n2CCNc1cc(-c2ccc3nccnc3c2)ncn1 [compound 376]; 7.30
CCOc1cc(-c2cc(NCCn3c(C)cc4cc(Cl)cc(Cl)c43)ncn2)ccc1C(=O)O [compound 153]; 6.69
